- measurement description: Cyclodextrin-AOL solubility diagrams
- Format: physicochemical
- test conditions: aqueous cyclodextrin solution, 25 °C, aqueous with cosolvent or surfactant or cyclodextrin, thermodynamic from solid, HP-β-CD 5% (w/w), 25° C.; read-out: AOL solubility
outcome measure: solubility at 4 h

Problem: For the molecule COc1ccc(-c2cc(=S)ss2)cc1 , what solubility at 4 h is on record?
Result: 0.0401 mg/mL

###

- measurement description: Cyclodextrin-AOL solubility diagrams
- Type: physicochemical
- test conditions: aqueous HP-β-CD solution, 4 °C, aqueous with cosolvent or surfactant or cyclodextrin, thermodynamic from solid, HP-β-CD 5% (w/w), 20° C. followed by 48 hours at 4° C.
outcome measure: solubility (µg/mL)
Answer format: numeric, µg/mL implied, no suffix.

Problem: Endpoint output: solubility of COc1ccc(-c2cc(=S)ss2)cc1 . Value?
Result: 25.1

###

- measurement description: Cyclodextrin-AOL solubility diagrams
- Assay type: physicochemical
- test conditions: aqueous SBE-β-CD solution, 25 °C, aqueous with cosolvent or surfactant or cyclodextrin, thermodynamic from solid, SBE-β-CD 10% (w/w), 25° C.; read-out: AOL solubility
outcome measure: solubility at 4 h (µg/mL)
The reply should be a number in µg/mL, with the unit left off.

Problem: Fill blank: measured solubility at 4 h of the compound COc1ccc(-c2cc(=S)ss2)cc1 [AOL] is ____.
Result: 156

###

- measurement description: Solubility testing in buffer containing media
- Type: physicochemical
- test conditions: buffered aqueous HP-β-CD medium, pH 6.5, aqueous with cosolvent or surfactant or cyclodextrin, HP-β-CD 30.0% (w/w), Phosphate 6.5 (100 μM), room temperature; read-out: AOL solubility
outcome measure: solubility (mg/mL)
Express it in mg/mL; write the number only.

Problem: Reported solubility for COc1ccc(-c2cc(=S)ss2)cc1 [AOL] : what is it?
Result: 0.48

###

- measurement description: Solubility testing in buffer containing media
- Assay type: physicochemical
- test conditions: buffered aqueous HP-β-CD medium, pH 7.5, aqueous with cosolvent or surfactant or cyclodextrin, HP-β-CD 10.0% (w/w), Phosphate 7.5 (100 μM), room temperature; read-out: AOL solubility
outcome measure: solubility (µg/mL)
State the answer as a number, implicitly in µg/mL.

Problem: Query: solubility; subject: COc1ccc(-c2cc(=S)ss2)cc1
Result: 112

###

- measurement description: Cyclodextrin solubilization screening of AOL
- Format: physicochemical
- test conditions: aqueous cyclodextrin solution, 25 °C, aqueous with cosolvent or surfactant or cyclodextrin, thermodynamic from solid, SBE-β-CD 100 mM, stirring 20 h
outcome measure: solubility at 20 h (µg/mL)
Output spec: scalar in µg/mL, unitless text.

Problem: What value of measured solubility at 20 h is listed for COc1ccc(-c2cc(=S)ss2)cc1 ?
Result: 161

###

- measurement description: Cyclodextrin solubilization screening of AOL
- Type: physicochemical
- test conditions: aqueous cyclodextrin solution, 25 °C, aqueous with cosolvent or surfactant or cyclodextrin, thermodynamic from solid, γ-CD 100 mM, stirring 3 h
outcome measure: solubility at 3 h (µg/mL)
Give the value in µg/mL but do not write µg/mL after it.

Problem: Find the recorded solubility at 3 h belonging to COc1ccc(-c2cc(=S)ss2)cc1 and report it.
Result: 2.86

###

- measurement description: Cyclodextrin-AOL solubility diagrams
- Type: physicochemical
- test conditions: aqueous cyclodextrin solution, 25 °C, aqueous with cosolvent or surfactant or cyclodextrin, thermodynamic from solid, HP-β-CD 30% (w/w), 25° C.; read-out: AOL solubility
outcome measure: solubility at 4 h

Problem: So what's the measured solubility at 4 h for this one? COc1ccc(-c2cc(=S)ss2)cc1 [AOL]
Result: 287 µg/mL

Attribution: patent US20210308173A1
